The values you see were collected from patent US20240182536A1.

testSystem: T1, IL-18 receptors on HEK-Blue IL-18 reporter cells (UniProt Q13478 19-541; O95256 20-599, limits assumed)
T1 sequence (looked up) 1: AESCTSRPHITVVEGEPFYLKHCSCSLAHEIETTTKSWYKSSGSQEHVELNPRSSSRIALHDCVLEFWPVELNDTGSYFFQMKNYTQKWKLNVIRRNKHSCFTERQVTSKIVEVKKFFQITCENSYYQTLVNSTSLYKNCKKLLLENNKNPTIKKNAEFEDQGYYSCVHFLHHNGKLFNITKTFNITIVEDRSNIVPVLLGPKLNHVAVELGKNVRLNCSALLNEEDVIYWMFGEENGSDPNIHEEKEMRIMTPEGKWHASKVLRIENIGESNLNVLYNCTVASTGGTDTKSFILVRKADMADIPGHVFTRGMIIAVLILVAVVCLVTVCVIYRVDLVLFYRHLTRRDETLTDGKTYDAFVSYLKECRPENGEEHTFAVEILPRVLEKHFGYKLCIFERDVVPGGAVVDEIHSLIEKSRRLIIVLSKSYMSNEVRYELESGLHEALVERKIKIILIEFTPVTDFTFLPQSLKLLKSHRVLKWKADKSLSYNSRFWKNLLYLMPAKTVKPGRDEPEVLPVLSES
T1 sequence (looked up) 2: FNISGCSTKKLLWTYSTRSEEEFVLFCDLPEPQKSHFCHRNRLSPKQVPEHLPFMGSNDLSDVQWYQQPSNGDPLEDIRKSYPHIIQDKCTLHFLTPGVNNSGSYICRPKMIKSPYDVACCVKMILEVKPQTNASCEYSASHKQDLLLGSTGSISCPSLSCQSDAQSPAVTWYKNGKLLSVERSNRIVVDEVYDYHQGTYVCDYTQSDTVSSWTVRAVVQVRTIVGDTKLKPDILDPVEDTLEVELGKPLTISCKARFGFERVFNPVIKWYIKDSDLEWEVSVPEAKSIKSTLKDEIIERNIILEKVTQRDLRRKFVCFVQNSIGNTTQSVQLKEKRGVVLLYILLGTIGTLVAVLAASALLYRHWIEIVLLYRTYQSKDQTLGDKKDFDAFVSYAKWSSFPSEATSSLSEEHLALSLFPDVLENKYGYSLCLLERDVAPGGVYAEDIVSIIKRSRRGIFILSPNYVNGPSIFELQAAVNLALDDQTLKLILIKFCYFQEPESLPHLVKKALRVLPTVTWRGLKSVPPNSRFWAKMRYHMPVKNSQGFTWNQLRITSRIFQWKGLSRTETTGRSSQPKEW
testDetails: cell-based or functional assay
measuredAttribute: Activity, No BP, DF-2500000
# respond with the number and nothing more

{"binder": "IL-18 variant G3P, E6K, D54Y, S55P, T63S, N91S, R104Q, Q154R (ligand) YFPKLKSKLSVIRNLNDQVLFIDQGNRPLFEDMTDSDMRDNAPRTIFIISMYKYPQPRGMAVSISVKSEKISTLSSENKIISFKEMNPPDSIKDTKSDIIFFQQSVPGHDNKMQFESSSYEGYFLASEKERDLFKLILKKEDELGDRSIMFTVRNED", "measuredAttribute": "Activity, No BP, DF-2500000", "valueObserved": 0.36}

Report Activity, No BP, DF-2500000 for IL-18 variant G3P, E6G, D54T, S55W, N91E, R104K (ligand) YFPKLGSKLSVIRNLNDQVLFIDQGNRPLFEDMTDSDMRDNAPRTIFIISMYKTWQPRGMAVTISVKSEKISTLSSENKIISFKEMNPPDEIKDTKSDIIFFQKSVPGHDNKMQFESSSYEGYFLASEKERDLFKLILKKEDELGDRSIMFTVQNED 0.07

Report Activity, No BP, DF-2500000 for IL-18 variant N91S, R104H (ligand) YFGKLESKLSVIRNLNDQVLFIDQGNRPLFEDMTDSDMRDNAPRTIFIISMYKDSQPRGMAVTISVKSEKISTLSSENKIISFKEMNPPDSIKDTKSDIIFFQHSVPGHDNKMQFESSSYEGYFLASEKERDLFKLILKKEDELGDRSIMFTVQNED 0.19
